pEC50 values, listed per item
target: LXRβ (Homo sapiens (Human))
Sequence (P55055 whole entry, the tested form may be a part): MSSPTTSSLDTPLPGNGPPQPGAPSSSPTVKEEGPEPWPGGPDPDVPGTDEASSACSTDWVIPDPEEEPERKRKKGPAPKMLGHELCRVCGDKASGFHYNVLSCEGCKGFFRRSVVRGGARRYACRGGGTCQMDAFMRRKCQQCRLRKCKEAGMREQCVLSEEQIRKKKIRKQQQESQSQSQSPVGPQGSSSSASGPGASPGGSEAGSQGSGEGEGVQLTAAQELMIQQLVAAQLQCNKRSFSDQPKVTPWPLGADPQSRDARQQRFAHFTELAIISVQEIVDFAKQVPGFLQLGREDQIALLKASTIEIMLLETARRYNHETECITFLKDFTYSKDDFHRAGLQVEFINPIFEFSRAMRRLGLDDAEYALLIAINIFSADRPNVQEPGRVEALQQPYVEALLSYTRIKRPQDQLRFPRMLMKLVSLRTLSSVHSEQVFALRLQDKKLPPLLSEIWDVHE
procedure details: In vitro assay LXRβ: PathHunter NHR CHO cells, LXRβ / Steroid Receptor Co-activator Peptide enzyme fragment complementation
Type: cell-based
run conditions: PathHunter NHR CHO cells, full-length human LXRβ and SRCP, chemiluminescent signal; read-out: LXRβ PPI
pEC50: −log10 of the molar value.
readout name: pEC50

line notation	measured value
C[C@H](CCC(=O)N1CCS(=O)(=O)C1)[C@H]1CC[C@H]2[C@@H]3CC=C4C[C@@H](O)CC[C@]4(C)[C@H]3CC[C@]12C	< 5.00
CNS(=O)(=O)C1CCN(C(=O)CC[C@@H](C)[C@H]2CC[C@H]3[C@@H]4CC=C5C[C@@H](O)CC[C@]5(C)[C@H]4CC[C@]23C)CC1	< 5.00
C[C@H](CCC(=O)N1CCN(C(=O)N2CCCC2)CC1)[C@H]1CC[C@H]2[C@@H]3CC=C4C[C@@H](O)CC[C@]4(C)[C@H]3CC[C@]12C	< 5.00
